Attribute: thermal shift delta Tm
# Test system: LOC_OS01G39600-cb002
# Method summary: thermal shift delta Tm vs DMSO control; higher = stronger stabilization (binding);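 note: purified Escherichia coli-expressed rice kinase domain construct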
# Stated conditions: 12.5 µM; protein concentration 2 µM
Output spec: scalar in °C, unitless text.

Answered examples (10):
Cn1c(=O)c(Oc2ccc(F)cc2F)cc2cnc(NC(CCO)CCO)nc21: 0.22
O=c1c(-c2ccc(O)cc2)coc2cc(O)cc(O)c12: 0.12
COc1cc(N2CCN(C)CC2)ccc1Nc1ncc2c(n1)N(C)c1ccccc1C(=O)N2: 0.75
Cn1sc(=O)n(Cc2ccccc2)c1=O: 0.5
O=C(Nc1nc2cccc(-c3ccc(CN4CCS(=O)(=O)CC4)cc3)n2n1)C1CC1: -0.06
CC(=O)Nc1cccc(-n2c(=O)n(C3CC3)c(=O)c3c(Nc4ccc(I)cc4F)n(C)c(=O)c(C)c32)c1: -0.55
O=c1ncn2nc(Sc3ccc(F)cc3F)ccc2c1-c1c(Cl)cccc1Cl: -0.38
CCN(CC)CCNC(=O)c1c(C)[nH]c(/C=C2\C(=O)Nc3ccc(-c4csc(-c5ccccc5)n4)cc32)c1C: 4.12
COc1ncc(-c2cc(-c3ncc(CN4C[C@@H](C)O[C@@H](C)C4)o3)c3cn[nH]c3c2)cc1NS(C)(=O)=O: 0.15
Nc1[nH]nc2nnc(-c3c(-c4ccccc4)nn4ccccc34)cc12: -0.05

Requested read-out: thermal shift delta Tm. Entry: "CC(C)n1nc(-c2cc3cc(O)ccc3[nH]2)c2c(N)ncnc21" -0.17

Requested read-out: thermal shift delta Tm. Entry: "CNC(=O)CN1CCC(Oc2cc3c(Nc4cccc(Cl)c4F)ncnc3cc2OC)CC1" 0.43

Requested read-out: thermal shift delta Tm. Entry: "CC(C)N(CCC(=O)c1ccc2ccccc2c1)Cc1ccccc1" -2.79

Requested read-out: thermal shift delta Tm. Entry: "CN1CCN(Cc2ccc(NC(=O)Nc3ccc(Oc4ccnc(N)n4)cc3)cc2C(F)(F)F)CC1" 0.62

Requested read-out: thermal shift delta Tm. Entry: "C=CC(=O)Nc1cccc(Nc2nc(Nc3ccc(OCCOC)cc3)ncc2F)c1" -1.51

Requested read-out: thermal shift delta Tm. Entry: "CCc1cccc(CC)c1NC(=O)N1Cc2[nH]nc(NC(=O)c3ccc(N4CCN(C)CC4)cc3)c2C1" 2.21

Requested read-out: thermal shift delta Tm. Entry: "CC[C@@H](N)CNc1ccnc(-c2cc(-c3cnn(C)c3)ccc2O)n1" -0.05

Requested read-out: thermal shift delta Tm. Entry: "C[C@@H]1COCCN1c1cc(=O)n2c(n1)N(Cc1cncc(Cl)c1)[C@H](C(F)(F)F)CC2" 0.34

* * *

# Test system: LOC_OS01G70970-cb002
# Method summary: thermal shift delta Tm vs DMSO control; higher = stronger stabilization (binding)
# Stated conditions: 12.5 µM; protein concentration 2 µM
Measure: thermal shift delta Tm (°C)
Output spec: scalar in °C, unitless text.

O=c1cc(-c2ccccc2)oc2c(O)c(O)ccc12 [7,8-Dihydroxyflavone]: -0.06

Requested read-out: thermal shift delta Tm. Entry: "Cc1ccc(NC(=O)c2cccc(N(C)C)c2)cc1NC(=O)c1ccc(O)cc1" 0.28

Requested read-out: thermal shift delta Tm. Entry: "COc1ccc(-c2cc3c(C)nc(N)nc3n([C@H]3CC[C@H](OCCO)CC3)c2=O)cn1" 0.14

Requested read-out: thermal shift delta Tm. Entry: "CCS(=O)(=O)Nc1ccc2c(c1)/C(=C(/Nc1ccc(CN3CCCCC3)cc1)c1ccccc1)C(=O)N2" 9.09

Requested read-out: thermal shift delta Tm. Entry: O=C(NC(NC(=S)Nc1ccc(F)c([N+](=O)[O-])c1)C(Cl)(Cl)Cl)C(c1ccccc1)c1ccccc1 (configuration not stated) 1.86

Requested read-out: thermal shift delta Tm. Entry: "Cn1cc(-c2ccc3nnc(Sc4ccc5ncccc5c4)n3n2)cn1" 0.3

Requested read-out: thermal shift delta Tm. Entry: "COc1ccc(S(=O)(=O)N(C(C)=O)c2ccccc2/C=C/c2cc[n+]([O-])cc2)cc1" 0.2

* * *

# Tested on: LOC_OS01G10900-cb004
# Method summary: thermal shift delta Tm vs DMSO control; higher = stronger stabilization (binding)
# Stated conditions: 12.5 µM; protein concentration 2 µM
Measure: thermal shift delta Tm
Write the numeric value and append its unit.

COc1ccc(CC(=O)Nc2nc3c(s2)CCc2ccccc2-3)cc1OC: 0.85 °C
COc1ccc(COc2ccc(Cc3cnc(N)nc3N)cc2OC)cc1: 2.07 °C

Requested read-out: thermal shift delta Tm. Entry: "NC(=O)c1ncn([C@@H]2O[C@H](CO)[C@@H](O)[C@H]2O)c1N" 0.56 °C

Requested read-out: thermal shift delta Tm. Entry: "O=C(Nc1c[nH]nc1-c1nc2ccc(CN3CCOCC3)cc2[nH]1)NC1CC1" 2.15 °C

* * *

# Tested on: LOC_OS02G14120-cb001
# Method summary: thermal shift delta Tm vs DMSO control; higher = stronger stabilization (binding)
# Stated conditions: 12.5 µM; protein concentration 2 µM
Attribute: thermal shift delta Tm
Output spec: scalar in °C, unitless text.

Answered examples (5):
Cn1cnc2c(F)c(Nc3ccc(Br)cc3Cl)c(C(=O)NOCCO)cc21: 0.1
CCNC(=O)C#Cc1ccc2c(C(=Nc3ccc(CN(C)C)cc3)c3ccccc3)c(O)[nH]c2c1: 0.91
O=C(Cc1ccc(-c2ccc(OCCN3CCOCC3)cc2)cn1)NCc1ccccc1: 0.08
CS(=O)(=O)N1CCN(Cc2cc3nc(-c4cccc5[nH]ncc45)nc(N4CCOCC4)c3s2)CC1: 0.32
CC(C)c1cnn2c(NCc3ccccc3)cc(NCCCCCCN)nc12: -0.59

Here is the next item to consider.
Requested read-out: thermal shift delta Tm. Entry: "C[C@@H](N)c1ccc(C(=O)Nc2ccnc3[nH]ccc23)cc1" 4

* * *

# Test system: LOC_OS02G45750-cb003
# Method summary: thermal shift delta Tm vs DMSO control; higher = stronger stabilization (binding)
# Stated conditions: 12.5 µM; protein concentration 2 µM
Class boundaries, taken from values of thermal shift delta Tm, are as follows: low (below 0.3 °C), middle (0.3 °C to below 1 °C), high (1 °C or more)

Consider the following illustrative entries.
Cc1ccc(NC(=O)c2cccc(C(C)(C)C#N)c2)cc1Nc1ccc2ncn(C)c(=O)c2c1: high
c1nc2c(NC3CCCCC3)nc(Nc3ccc(N4CCOCC4)cc3)nc2[nH]1: high
Cn1ncc(Cl)c1-c1cc(C(=O)N[C@H](CN)Cc2ccc(F)c(F)c2)oc1Cl: high
Cc1ccc(-n2nc(C(C)(C)C)cc2NC(=O)NCc2cc(F)ccc2Oc2ccc3c(cnn3CCO)c2)cc1: middle

Form field 'band' for "O=C1NC(=O)/C(=C/c2cccc(C(F)(F)F)c2)S1" low

Form field 'band' for Clc1ccc(Nc2nnc(Cc3ccncc3)c3ccccc23)cc1 [Vatalanib (PTK787) 2HCl] low

Form field 'band' for "Nc1nc(N)c2nc(-c3cccc(O)c3)c(-c3cccc(O)c3)nc2n1" middle

Form field 'band' for "COc1cc2c(Oc3ccc(NC(=O)C4(C(=O)Nc5ccc(F)cc5)CC4)cc3F)ccnc2cc1OCCCN1CCOCC1" high

Form field 'band' for "Cc1cnc(Nc2ccc(N3CCN(C)CC3)cc2)nc1Nc1cccc(S(=O)(=O)NC(C)(C)C)c1" high

Form field 'band' for "CC#CC(=O)Nc1ccc2ncnc(Nc3cccc(Br)c3)c2c1" low

Form field 'band' for "COC(=O)Nc1ccc(-c2nc(N3CCOCC3)c3cnn(C4CCN(C(=O)OC)CC4)c3n2)cc1" low

Form field 'band' for "Cc1ccc(NC(=O)c2ccc(CN3CCN(C)CC3)cc2)cc1Nc1nc(-c2cccnc2)cs1" middle

* * *

Attribute: thermal shift delta Tm
# Test system: LOC_OS04G35114-cb001
# Method summary: thermal shift delta Tm vs DMSO control; higher = stronger stabilization (binding)
# Stated conditions: 12.5 µM; protein concentration 2 µM
Write the numeric value and append its unit.

Answered examples (2):
COc1cc(Nc2ncc(F)c(Nc3ccc4c(n3)N(COP(=O)(O)O)C(=O)C(C)(C)O4)n2)cc(OC)c1OC [R788 (Fostamatinib) Disodium]: 2.02 °C
Cc1ccccc1-n1c(Cn2nc(-c3cccc(O)c3)c3c(N)ncnc32)nc2cccc(C)c2c1=O: 0.34 °C

Requested read-out: thermal shift delta Tm. Entry: CO[C@H]1C[C@@H]2CC[C@@H](C)[C@@](O)(O2)C(=O)C(=O)N2CCCC[C@H]2C(=O)O[C@H]([C@H](C)C[C@@H]2CC[C@H](n3cnnn3)[C@H](OC)C2)CC(=O)[C@H](C)/C=C(\C)[C@@H](O)[C@@H](OC)C(=O)[C@H](C)C[C@H](C)/C=C/C=C/C=C/1C [Zotarolimus(ABT-578)] 0.66 °C

Requested read-out: thermal shift delta Tm. Entry: "COc1cc(-c2cc(-c3ccc(N4CCNCC4)cc3)cnc2C)cc(OC)c1OC" 2.27 °C

Requested read-out: thermal shift delta Tm. Entry: "O=C(Nc1ccc(OC(F)(F)F)cc1)c1sccc1NCc1ccnc2ccccc12" 0.29 °C

# credit: the supplement of paper PMC9694430
